Tested on: Enterococcus sp.
Experiment: in vitro antibacterial evaluation, MIC by broth dilution
Assay type: cell-based
Conditions: strain ATCC 29212; broth dilution, 18 hours at 35° C.
From the text: Methods for in vitro Antibacterial Evaluation (Table 1) […]
The following compounds are shown together with reported MIC Enterococcus faecalis (ATCC 29212) values.

CC(c1ccccc1)C1NC(=O)CNC(=O)C(CO)NC(=O)C(C(O)C2CNC(=N)N2C2OC(CO)C(O)C(O)C2O)NC(=O)C(C(O)C2CNC(=N)N2)NC(=O)C(Cc2ccc(OC3OC(CO)C(OC4OC5COC(c6cccc(Oc7ccccc7)c6)OC5C(O)C4O)C(O)C3O)cc2)NC1=O (stereo not shown) : 4 µg/mL
COc1ccc(Oc2cccc(-c3nc4cc(CC5NC(=O)C(C(C)c6ccccc6)NC(=O)CNC(=O)C(CO)NC(=O)C(C(O)C6CNC(=N)N6C6OC(CO)C(O)C(O)C6O)NC(=O)C(C(O)C6CNC(=N)N6)NC5=O)ccc4o3)c2)cc1 (stereo not shown) : 16 µg/mL
CC(c1ccccc1)C1NC(=O)CNC(=O)C(CO)NC(=O)C(C(O)C2CNC(=N)N2C2OC(CO)C(O)C(O)C2O)NC(=O)C(C(O)C2CNC(=N)N2)NC(=O)C(Cc2ccc(OC3OC(CO)C(OC4OC5COC(c6ccc(C(=O)O)cc6)OC5C(O)C4O)C(O)C3O)cc2)NC1=O (stereo not shown) : >64 µg/mL

INPUT: Recorded MIC Enterococcus faecalis (ATCC 29212) for CC(c1ccccc1)C1NC(=O)CNC(=O)C(CO)NC(=O)C(C(O)C2CNC(=N)N2C2OC(CO)C(O)C(O)C2O)NC(=O)C(C(O)C2CNC(=N)N2)NC(=O)C(Cc2ccc(OC3OC(CO)C(OC4OC5COC(c6ccc7c(c6)OCO7)OC5C(O)C4O)C(O)C3O)cc2)NC1=O (stereo not shown) , please?
OUTPUT: 8 to 16 µg/mL
